B1: Caulobacter ParB omega fusion; a variant is named by its letters at X, in order, B8GW30 (parent)
chain: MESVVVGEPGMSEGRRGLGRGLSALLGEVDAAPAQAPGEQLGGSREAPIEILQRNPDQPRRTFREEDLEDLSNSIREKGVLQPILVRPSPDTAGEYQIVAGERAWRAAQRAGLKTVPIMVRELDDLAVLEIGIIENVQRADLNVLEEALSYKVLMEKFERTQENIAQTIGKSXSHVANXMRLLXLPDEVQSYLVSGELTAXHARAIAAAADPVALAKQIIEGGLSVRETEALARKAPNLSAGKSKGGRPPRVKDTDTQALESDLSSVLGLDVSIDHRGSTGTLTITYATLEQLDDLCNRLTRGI

Variants of: B1
Experiment summary: one-hybrid fitness for binding NBS DNA (the Noc-binding site; scaled: cognate 1, non-cognate 0); higher = stronger binding
Setup conditions: with NBS DNA site
In all, about 81,000 sequences were measured (“one-hybrid fitness for binding NBS DNA”: median about -0.1, highest 2% from about 0.36 on). The full list was thinned out, with the highest values kept by preference.
Result type: one-hybrid fitness for binding NBS DNA
Form rule: numeric answer, no unit written next to it.

Below: 5 variants and their reported one-hybrid fitness for binding NBS DNA.
{"columns": ["Mutation annotation", "one-hybrid fitness for binding NBS DNA"],
 "data": [
  ["QLKV", 0.342],
  ["QRKQ", 0.492],
  ["QRKV", 0.588],
  ["QPVQ", 0.598],
  ["QSKQ", 0.351]
]}

Lookup: Suppose we examine the variant QRVQ ; what one-hybrid fitness for binding NBS DNA value has been reported?
Found: 0.511

Lookup: I'd like to know its one-hybrid fitness for binding NBS DNA. The variant in question is RLKS
Found: 0.554

Lookup: Using the record for QCKV , report its one-hybrid fitness for binding NBS DNA.
Found: 0.479
